Measured values drawn from PubChem BioAssay (EPA / NIEHS) for this set.

assayDetails: ATG_ERE_CIS: Attagene CIS-FACTORIAL HepG2 Assay for Estrogen Response Element (ERE) (AID 2282940)
cond: HepG2 ERE cis-reporter, Attagene RNA transcript; actives raise or lower the signal
The source made the active and inactive calls. The calls were made as follows: active = hit-call score of the fitted dose curve at least 0.9, where 1 is the maximum; inactive = score below 0.9.
Answer with one of the outcomes given here: Y for active, N for inactive

A selection of reference data follows.
{"structure": "CCCCCCC(C)(C)C(=O)O", "label": "Y"}
{"structure": "FC(F)=C(F)C(F)(F)C(F)(F)C(F)(F)C(F)F", "label": "N"}
{"structure": "Cc1ccccc1OCC(=O)O", "label": "N"}
{"structure": "CCOC=O", "label": "Y"}
{"structure": "COc1cc(OC)nc(NC(=O)NS(=O)(=O)Nc2ccccc2C(=O)N(C)C)n1", "label": "N"}
{"structure": "CCCCCCCCCCCCCCCC(=O)OC", "label": "N"}
{"structure": "C=CC(F)(F)C(F)(F)C(F)(F)C(F)(F)F", "label": "N"}
{"structure": "CCc1cccc(CC)c1NC(=O)C(=O)O", "label": "N"}
{"structure": "NNC(=O)CCCCC(=O)NN", "label": "N"}
{"structure": "CCO[Si](C)(C)OCC", "label": "N"}

QUERY: Assay result, entry O=C1OC(=O)C(F)(F)C1(F)F — outcome?
RESULT: N

QUERY: Test call, this compound: CC(C)(c1ccc(Oc2ccc(N)cc2)cc1)c1ccc(Oc2ccc(N)cc2)cc1
RESULT: N

QUERY: Hi, do you know how CC(C)(C)c1ccc(CCC=O)cc1 came out in this test?
RESULT: Y

QUERY: Any idea what this test logged for CCCCCCCCCCCC(=O)NCCCN(C)C ?
RESULT: N

----------
Read-out: Interleukin-1 alpha (IL1a), IL1A (gene 3552)
assayDetails: BSK_KF3CT_IL1a: BioMAP Diversity Plus: KF3CT Assay for Interleukin-1 alpha (IL1a) Biomarker Activity (AID 2283070)
cond: primary human keratinocytes with fibroblasts; actives raise or lower the signal
Active and inactive are the calls of the source. How the source made its calls: active means hit-call score of the fitted dose curve at least 0.9, where 1 is the maximum; inactive means score below 0.9.
Respond using exactly one of the listed classes: active, inactive

Reference set, count: 4
{"compound": "OCC(CO)(CBr)CBr", "label": "inactive"}
{"compound": "O=P(O)(O)CCC(F)(F)C(F)(F)C(F)(F)C(F)(F)C(F)(F)C(F)(F)F", "label": "inactive"}
{"compound": "CCCCCCCCCCCCCCC", "label": "inactive"}
{"compound": "CN(C)CCOC(c1ccccc1)c1ccccc1", "label": "inactive"}

Then there is this compound:
QUERY: Which outcome was entered for the compound COc1cc(OC)nc(NC(=O)NS(=O)(=O)Nc2ccccc2C(=O)N(C)C)n1 in this test?
RESULT: inactive

----------
assayDetails: BSK_BE3C_SRB: Viability Assessment in the BioMAP Diversity Plus: BE3C Assay (AID 2283028);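 also: measured 24 h after chemical dosing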
cond: primary human bronchial epithelial cells
The source made the active and inactive calls. Rule for the calls: active = hit-call score of the fitted dose curve at least 0.9, where 1 is the maximum; inactive = score below 0.9.
Permitted responses: active, inactive

Solved entries (count: 10):
{"compound": "O=P(O)(O)CCC(F)(F)C(F)(F)C(F)(F)C(F)(F)C(F)(F)C(F)(F)F", "label": "inactive"}
{"compound": "C=CC(=C)CC/C=C(\\C)CCC=C(C)C", "label": "inactive"}
{"compound": "OCC(CO)(CBr)CBr", "label": "inactive"}
{"compound": "O=C(NO)c1ccccc1", "label": "inactive"}
{"compound": "Cc1ccc(C(=O)c2ccccc2)cc1", "label": "inactive"}
{"compound": "C=COC(=O)C(C)(C)CCCCCC", "label": "inactive"}
{"compound": "Oc1cc2ccccc2cc1O", "label": "inactive"}
{"compound": "CCCCCCCCCCCCOS(=O)(=O)O", "label": "active"}
{"compound": "CN(C)CCOC(c1ccccc1)c1ccccc1", "label": "inactive"}
{"compound": "CC(=O)Nc1ccc(O)cc1", "label": "inactive"}

QUERY: Test call for this compound, please: CC(C)(C)c1ccc(O)c(O)c1
RESULT: inactive

QUERY: What classification did COc1cccc(O)c1 end up with in this test?
RESULT: inactive

QUERY: # outcome recorded in this test, key = COc1cc(OC)nc(NC(=O)NS(=O)(=O)Nc2ccccc2C(=O)N(C)C)n1
RESULT: inactive

QUERY: Hi team, can someone confirm the assay call for CCCCCCCCCCCC ?
RESULT: inactive
